meta.source: PubChem BioAssay (EPA / NIEHS)

# protocol: ATG_SREBP_CIS: Attagene CIS-FACTORIAL HepG2 Assay for human Sterol Regulatory Element Binding (SREBP) (AID 2282962)
# condition-context: HepG2 Attagene cis-factorial SREBP reporter, mRNA; actives raise or lower the signal
The source made the active and inactive calls. Rule for the calls: active = hit-call score of the fitted dose curve at least 0.9, where 1 is the maximum; inactive = score below 0.9.
// one of active, inactive, no free text

compound | class-name
COC(=O)c1cccc(C)c1S(=O)(=O)NC(=O)Nc1nc(OCC(F)(F)F)nc(N(C)C)n1 | inactive

What was the test verdict on "CC(=O)[C@H]1CC[C@H]2[C@@H]3CCC4=CC(=O)CC[C@]4(C)[C@H]3CC[C@]12C" ?
active

What was the test verdict on "CCOC(=O)COc1cc(-n2ncc(C(F)(F)F)c(C)c2=O)c(F)cc1Cl" ?
inactive

What was the test verdict on CCC(C)OC(=O)N1CCCCC1CCO (stereo not given) ?
inactive

What was the test verdict on "S=C(S)NCCNC(=S)S.[Mn+2].[S-]C([S-])=NCCN=C([S-])[S-].[Zn+2]" ?
inactive
